targetDesc: human 17β-HSD1 (Homo sapiens)
Construct: For the partial purification of 17β-HSD1, the cytosolic fraction was precipitated with ammonium sulfate; from tissue; host or cells: human placenta, cytosolic fraction, ammonium sulfate precipitate
Sequence (P14061 whole entry): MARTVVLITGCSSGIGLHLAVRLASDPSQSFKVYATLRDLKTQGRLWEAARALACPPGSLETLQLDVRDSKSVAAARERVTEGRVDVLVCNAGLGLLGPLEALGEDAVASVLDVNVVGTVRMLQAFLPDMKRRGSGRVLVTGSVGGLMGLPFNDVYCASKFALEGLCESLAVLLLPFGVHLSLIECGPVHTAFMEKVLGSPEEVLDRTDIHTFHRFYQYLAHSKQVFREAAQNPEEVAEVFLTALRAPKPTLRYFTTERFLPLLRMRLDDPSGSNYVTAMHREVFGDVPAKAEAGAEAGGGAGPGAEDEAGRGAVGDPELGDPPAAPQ
experiment: Inhibition of human 17β-HSD1 (conversion of [3H]-E1 to E2, HPLC radioflow detection)
Type: biochemical
runConditions: human placental cytosolic enzyme, E1 500 nM, NADH; Tables 1, 4-11; read-out: IC50 [nM] h17β-HSD1

# querySmiles, unitOfMeasure, IC50
rows = [
    ("O=C(c1ccc(-c2ccc(O)c(F)c2)s1)c1cc(F)c(F)c(O)c1F", "nM", 2.5),
    ("O=C(c1ccc(-c2cccc(NS(=O)(=O)c3ccccc3OC(F)(F)F)c2)s1)c1cc(F)c(F)c(O)c1F", "nM", 5.8),
    ("O=C(c1ccc(-c2cc(F)c(OC(F)F)c(F)c2)s1)c1c(F)ccc(O)c1F", "nM", 7),
    ("COc1c(Cl)cc(-c2ccc(C(=O)c3c(F)ccc(O)c3F)s2)cc1Cl", "nM", 0.6),
    ("COc1c(C)cc(-c2ccc(C(=O)c3cc(F)c(F)c(O)c3F)s2)cc1C", "nM", 1.2),
    ("O=C(c1ccc(-c2cncc(F)c2)s1)c1cc(F)c(F)c(O)c1F", "nM", 59),
    ("Cc1cc(-c2ccc(C(=O)c3cc(F)c(F)c(O)c3F)s2)cc(C)c1O", "nM", 0.9),
    ("Cc1cc(C(=O)c2c(F)ccc(O)c2F)sc1-c1ccc(O)c(Cl)c1", "nM", 0.8),
]
